Hi there, I'd appreciate the recorded half-life at 20 µM for every entry that follows.
- experiment.summary: Half life in simulated intestinal fluid at 20 uM by LC-MS/MS analysis
- Type: ADME

CC(=O)NCCCC[C@H](NC(=O)C(C)(C)NC(=O)[C@H](Cc1ccc2ccccc2c1)NC(=O)[C@H](Cc1ccc(OCCN)cc1)NC(=O)[C@@H](NC(=O)[C@H](CCC(N)=O)NC(=O)[C@H](Cc1c[nH]c2ccccc12)NC(=O)[C@@H](NC(=O)[C@H](CCC(N)=O)NC(=O)[C@@H](NC(C)=O)C(C)(C)S)[C@@H](C)O)C(C)(C)S)C(=O)N[C@@H](CC(N)=O)C(=O)N[C@@H](CC(N)=O)C(N)=O : 2 to 3 h

State the recorded half-life at 20 µM for every item in the following list.
1. CC(=O)N[C@H]1CCSC[C@@H](C(=O)N[C@@H](Cc2ccc(OCCN)cc2)C(=O)N[C@@H](Cc2ccc3ccccc3c2)C(=O)N[C@@H](CCCN)C(=O)N[C@@H](CN)C(=O)N[C@@H](CC(N)=O)C(=O)NCC(N)=O)NC(=O)[C@H](CCC(N)=O)NC(=O)[C@H](Cc2c[nH]c3ccccc23)NC(=O)[C@H]([C@@H](C)O)NC(=O)[C@H](CCC(N)=O)NC1=O
2. COc1ccc(C[C@H](NC(=O)[C@@H]2CSCC[C@H](NC(C)=O)C(=O)N[C@@H](CCC(N)=O)C(=O)N[C@@H]([C@@H](C)O)C(=O)N[C@@H](Cc3c[nH]c4ccccc34)C(=O)N[C@@H](CCC(N)=O)C(=O)N2)C(=O)N[C@@H](Cc2c[nH]c3ccccc23)C(=O)N[C@@](C)(CCCCN)C(=O)N[C@@H](CCCCNC(C)=O)C(=O)N[C@@H](CC(N)=O)C(=O)NCC(N)=O)cc1
3. CC(=O)NCCCC[C@H](NC(=O)C(C)(C)NC(=O)[C@H](Cc1ccc2ccccc2c1)NC(=O)[C@H](Cc1ccc(OCCN)cc1)NC(=O)[C@@H](NC(=O)[C@H](CCC(N)=O)NC(=O)[C@H](Cc1c[nH]c2ccccc12)NC(=O)[C@@H](NC(=O)[C@H](CC(N)=O)NC(=O)[C@@H](NC(C)=O)C(C)(C)S)[C@@H](C)O)C(C)(C)S)C(=O)N[C@@H](CC(N)=O)C(=O)N[C@@H](C)C(N)=O
4. CC(=O)NCCCC[C@H](NC(=O)C(C)(C)NC(=O)[C@H](Cc1ccc2ccccc2c1)NC(=O)[C@H](Cc1ccc(OCCN)cc1)NC(=O)[C@@H]1CSCC[C@H](NC(C)=O)C(=O)N[C@@H](CCC(N)=O)C(=O)N[C@@H]([C@@H](C)O)C(=O)N[C@@H](Cc2c[nH]c3ccccc23)C(=O)N[C@@H](CCC(N)=O)C(=O)N1)C(=O)N[C@@H](CC(N)=O)C(=O)NCC(N)=O
5. CC(=O)N[C@@H](CCC(=O)O)C(=O)N[C@H]1CCSC[C@@H](C(=O)N[C@@H](Cc2ccc(OCCN)cc2)C(=O)N[C@@H](Cc2ccc3ccccc3c2)C(=O)N[C@@](C)(CCCCN)C(=O)N[C@@H](CCC(=O)O)C(=O)N[C@@H](CC(N)=O)C(=O)N[C@@H](CC(N)=O)C(N)=O)NC(=O)[C@H](CCC(N)=O)NC(=O)[C@H](Cc2c[nH]c3ccccc23)NC(=O)[C@H]([C@@H](C)O)NC(=O)[C@H](CCC(N)=O)NC1=O

result:
< 1 h
> 6 h
> 6 h
1 to 2 h
> 6 h

====

- tested.target: Interleukin-23 receptor (Homo sapiens)
- Sequence (Q5VWK5 whole entry): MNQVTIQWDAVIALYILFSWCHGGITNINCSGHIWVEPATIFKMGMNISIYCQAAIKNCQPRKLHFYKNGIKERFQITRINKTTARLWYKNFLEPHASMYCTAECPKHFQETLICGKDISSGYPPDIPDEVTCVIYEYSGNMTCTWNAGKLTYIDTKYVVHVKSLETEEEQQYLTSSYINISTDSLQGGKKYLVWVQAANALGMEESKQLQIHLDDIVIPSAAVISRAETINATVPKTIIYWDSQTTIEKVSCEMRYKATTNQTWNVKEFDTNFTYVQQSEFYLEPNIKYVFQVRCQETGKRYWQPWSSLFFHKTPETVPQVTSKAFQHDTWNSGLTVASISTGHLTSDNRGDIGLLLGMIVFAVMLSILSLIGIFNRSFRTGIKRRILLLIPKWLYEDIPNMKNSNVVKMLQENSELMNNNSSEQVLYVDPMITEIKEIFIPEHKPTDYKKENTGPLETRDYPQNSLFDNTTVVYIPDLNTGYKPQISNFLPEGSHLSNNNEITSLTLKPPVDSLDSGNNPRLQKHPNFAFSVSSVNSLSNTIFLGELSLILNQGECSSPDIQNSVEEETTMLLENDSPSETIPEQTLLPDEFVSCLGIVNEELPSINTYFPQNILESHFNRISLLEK
- experiment.summary: Inhibition of interleukin-23 binding to human interleukin-23 receptor incubated for 2 hrs by competitive binding ELISA
Where a SMILES comes first, the peptide text is derived from it.
measured.property: IC50

query: I am curious: what IC50 value has been reported for CC(=O)NCC(=O)NCC(=O)NCC(=O)N[C@@H](CCC(=O)O)C(=O)N[C@@H](CS)C(=O)N[C@@H](CCC(=O)O)C(=O)N[C@@H](CC(N)=O)C(=O)N[C@@H](Cc1c[nH]c2ccccc12)C(=O)N[C@@H](CCC(=O)O)C(=O)N[C@@H](CS)C(=O)N[C@@H](Cc1ccc(O)cc1)C(=O)N[C@@H](Cc1c[nH]c2ccccc12)C(=O)N[C@@H](Cc1cnc[nH]1)C(=O)N[C@H](C(=O)N[C@@H](Cc1ccccc1)C(=O)NCC(N)=O)[C@@H](C)O (Ac-GGGECENWECYWHTFG-NH2) ?
result: 500 to 1000 nM

====

- tested.target: Interleukin-23 receptor (Homo sapiens)
- experiment.summary: Inhibition of interleukin-23 binding to human interleukin-23 receptor incubated for 2 hrs by competitive binding ELISA
Where a SMILES comes first, the peptide text is derived from it.
Please respond with reported IC50 for every item in the list.

Sample records with IC50:
CC(=O)NCCCC[C@H](NC(=O)[C@](C)(CC(C)C)NC(=O)[C@H](Cc1ccc2ccccc2c1)NC(=O)[C@H](Cc1ccc(OCCNC(C)=O)cc1)NC(=O)[C@@H](NC(=O)[C@H](CCC(N)=O)NC(=O)[C@H](Cc1c[nH]c2ccccc12)NC(=O)[C@@H](NC(=O)[C@H](CCC(N)=O)NC(=O)[C@@H](NC(C)=O)C(C)(C)S)[C@@H](C)O)C(C)(C)S)C(=O)N[C@@H](CC(N)=O)C(=O)N[C@@H](CC(N)=O)C(N)=O : < 10 nM
CC(=O)N[C@H](C(=O)N[C@@H](CCC(N)=O)C(=O)N[C@H](C(=O)N[C@@H](Cc1c[nH]c2ccccc12)C(=O)N[C@@H](CCC(N)=O)C(=O)N[C@H](C(=O)N[C@@H](Cc1ccc(O)cc1)C(=O)N[C@@H](Cc1c[nH]c2ccccc12)C(=O)N[C@@](C)(CC(C)C)C(=O)N[C@@H](CCC(=O)O)C(=O)N[C@@H](CC(N)=O)C(=O)NCC(N)=O)C(C)(C)S)[C@@H](C)O)C(C)(C)S : 25 to 100 nM
C[C@H](NC(=O)[C@@H](N)CS)C(=O)N[C@@H](CC(=O)O)C(=O)N[C@@H](Cc1c[nH]c2ccccc12)C(=O)N[C@@H](CS)C(=O)N[C@@H](CS)C(=O)N[C@@H](Cc1ccc(O)cc1)C(=O)N[C@@H](Cc1c[nH]c2ccccc12)C(=O)N[C@@H](CS)C(=O)N[C@H](C(=O)N[C@@H](Cc1ccccc1)C(=O)NCC(N)=O)[C@@H](C)O (H-CADWCCYWCTFG-NH2) : > 1000 nM
CC(=O)N[C@H]1CCSC[C@@H](C(=O)N[C@@H](Cc2ccc(OCCN)cc2)C(=O)N[C@@H](Cc2ccc3ccccc3c2)C(=O)N[C@@H](CCCN)C(=O)N[C@@H](CN)C(=O)N[C@@H](CC(N)=O)C(=O)NCC(N)=O)NC(=O)[C@H](CCC(N)=O)NC(=O)[C@H](Cc2c[nH]c3ccccc23)NC(=O)[C@H]([C@@H](C)O)NC(=O)[C@H](CCC(N)=O)NC1=O : 25 to 100 nM

query: I would be grateful if you could share the reported IC50 for `CC(=O)N[C@H](C(=O)N[C@@H](CCCNC(=N)N)C(=O)N[C@H](C(=O)N[C@@H](Cc1c[nH]c2ccccc12)C(=O)N[C@@H](CCC(N)=O)C(=O)N[C@H](C(=O)N[C@@H](Cc1ccc(O)cc1)C(=O)N[C@@H](Cc1c[nH]c2ccccc12)C(=O)N[C@@H](CCCNC(=N)N)C(=O)N[C@@H](CCCCN)C(=O)N[C@@H](Cc1ccccc1)C(=O)NCC(=O)NCCOCC(=O)N[C@H](CCCCN)C(N)=O)C(C)(C)S)[C@@H](C)O)C(C)(C)S` .
result: 100 to 1000 nM
